Test system: U2OS
procedure_text: Multiplex assay against U2OS
Assay type: toxicity, cell-based
conditions_used: human, 48 h, 10 µM, compound concentration 10 uM, replicate 2
Exercise: state measured Total Cell Count for each of the compounds provided.
One number for each entry.

Worked cases, Total Cell Count given:
Query (compound): CNc1oc(-c2cccc3ccccc23)nc1C#N ; field requested: Total Cell Count 168

And Cl.Cl.Nc1ncnc2c1c(-c1cccc(OCc3ccccc3)c1)cn2[C@H]1C[C@@H](CN2CCC2)C1 ? 130

And Nc1ccc(C(=O)Nc2cccc(-c3nc(N4CCOCC4)c4oc5ncccc5c4n3)c2)cn1 ? 98

And Cc1cc2c(cc1N1C(=O)c3cccc4c(CCCO)ccc(c34)C1=O)n(C)c(=O)n2C ? 62

And COc1cc2c(NC3CCN(C(C)C)CC3)nc(N3CCC(F)(F)CC3)nc2cc1OCCCN1CCCC1 ? 149

List the reported Total Cell Count of each compound below.
1. CCc1cc2c(cc1CC)CC(NC[C@H](O)c1ccc(O)c3[nH]c(=O)ccc13)C2
2. Cc1nc(Cc2cccc(C(F)(F)F)c2)sc1-c1ccc(C(N)=O)nc1 [TP-024n]
3. C1=N/C2=N/c3ccc(OCCN4CCCC4)c(c3)COC/C=C\COCc3cccc(c3)C(=C1)N2
4. CCCn1c(=O)c2[nH]c(C34CC5CC(CC3C5)C4)nc2n(CCC)c1=O

1: 122; 2: 93; 3: 70; 4: 168

List the reported Total Cell Count of each compound below.
1. Nc1nc2c(c(N3CCNCC3)n1)CCC1=C2[C@@H]2CCCC[C@@H]2O1
2. CC(=O)c1cc(-c2cc(C(=O)NC3CC3)ccc2C)c2ncccn12
3. CC(C)N1CCC(C)(C)c2cc(C#Cc3ccc(C(=O)O)cc3)ccc21
4. COc1ccc(NS(=O)(=O)c2sc3ccc(Cl)cc3c2C)cc1N1CCNCC1.Cl
5. O=C(O)c1ccc2cc(-c3ccc(O)c(C45CC6CC(CC(C6)C4)C5)c3)ccc2c1
6. CCn1c(-c2nonc2N)nc2cnc(Oc3cccc(NC(=O)c4ccc(OCCN5CCOCC5)cc4)c3)cc21 [GSK-269962A]

1. 133
2. 93
3. 411
4. 75
5. 83
6. 108

List the reported Total Cell Count of each compound below.
1. CC(C)Oc1ccc(C(=O)N[C@H](CNC(=O)CN(C)C)Cc2ccc(-c3cn4cccc([C@H](C)O)c4n3)cc2)cc1Cl [GSK-923295A]
2. CCC(=O)O[C@]1(C(=O)SCF)[C@H](C)C[C@H]2[C@@H]3C[C@H](F)C4=CC(=O)C=C[C@]4(C)[C@@]3(F)[C@@H](O)C[C@@]21C [FLUTICASONE PROPIONATE]

[86, 101]

----------
Tested on: Fibroblast
procedure_text: Multiplex assay against human fibroblast
Type: toxicity, cell-based
conditions_used: 12 h, 10 µM, compound concentration 10 uM, replicate 1
Exercise: state measured Population Fragmented Nuclei (%) for each of the compounds provided.
Give bare numbers, in %.

Worked cases, Population Fragmented Nuclei (%) given:
Query (compound): CNC(=O)c1cc(Oc2ccc(NC(=O)Nc3cc(C(C)(C)C)nn3-c3ccc4ncccc4c3)c(F)c2)ccn1 ; field requested: Population Fragmented Nuclei (%) 20

And CCCn1c(=O)c2[nH]c(C34CC5CC(CC3C5)C4)nc2n(CCC)c1=O ? 13

And O=C(O)c1ccc2cc(-c3ccc(O)c(C45CC6CC(CC(C6)C4)C5)c3)ccc2c1 ? 32

And CC(=O)c1cc(-c2cc(C(=O)NC3CC3)ccc2C)c2ncccn12 ? 20

Others:
Query (compound): c1ccc2oc(-c3csc(C4CCN(Cc5nc6ncccc6[nH]5)CC4)n3)cc2c1 ; field requested: Population Fragmented Nuclei (%) 25
